assay-method-text: Diameter and PDI from DLS measurements of mRNA nanoparticles with lipid amines
Format: physicochemical
test-conditions: CFTR mRNA nanoparticle with lipid amine
Structures can show the parent of a compound that is named as a salt.
measured-endpoint: PDI
# respond with the number and nothing more

Quick note, PDI for CC[C@H](CC[C@@H](C)[C@H]1CC[C@H]2[C@@H]3CC=C4C[C@@H](SSCCC(=O)N(CCCCCCCC(C)(C)N)CCC(C)(C)N)CC[C@]4(C)[C@H]3CC[C@]12C)C(C)C [SA179, dihydrochloride] landed at 0.15

Entry under test: CC(C)CCC[C@@H](C)[C@H]1CC[C@H]2[C@@H]3CC=C4C[C@@H](OC(=O)N(CCCN)CCCCOCCCN)CC[C@]4(C)[C@H]3CC[C@]12C [SA61, dihydrochloride] . Its PDI was 0.11

The reported PDI of the compound CC[C@H](CC[C@@H](C)[C@H]1CC[C@H]2[C@@H]3CC=C4C[C@@H](OC(=O)CCC(=O)N(CCCCCCCC(C)(C)N)CCC(C)(C)N)CC[C@]4(C)[C@H]3CC[C@]12C)C(C)C [SA165, dihydrochloride] was 0.12

Lookup result for CC[C@H](CC[C@@H](C)[C@H]1CC[C@H]2[C@@H]3CC=C4C[C@@H](OC(=O)CCCC(=O)N(CCCCCCCC(C)(C)N)CCC(C)(C)N)CC[C@]4(C)[C@H]3CC[C@]12C)C(C)C [SA155, dihydrochloride] ; measured PDI: 0.13
